# Tested on: 186277-243-T-J2-PDC complex spheroids, viability;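 also: spheroids exposed to compounds for 7 days before viability read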
# assay-notes: Anticancer human tumor 186277-243-T-J2-PDC patient-derived colon adenocarcinoma cell line growth inhibition [RAS]; active = viability on the fitted dose curve at most 10% of control; inactive = the rest
# measurement-conditions: second compound 0.0949 µM; first compound 10 µM
Possible outcomes: Y = active, N = inactive

# molecule, class-label
rows = [
    ("CCC(CC)c1cc(NC2CCC(N)C2)n2nccc2n1 (stereo unspecified) + CCn1c(-c2cc(N3CCN(C)CC3)cnc2C(C)OC)c2c3cc(ccc31)-c1csc(n1)CC(NC(=O)C1CC1C)C(=O)N1CCCC(N1)C(=O)OCC(C)(C)C2", "Y"),
    ("CC(Nc1ccc2c(c1)OCCn1cc(N3C(=O)OCC3C(F)F)nc1-2)C(N)=O (stereo unspecified) + CCn1c(-c2cccnc2C(C)OC)c2c3cc(ccc31)N1CCOC(CC(NC(=O)C(C(C)C)N(C)C(=O)C3(F)CCN(C(=O)C#CC(C)(C)N(C)C)CC3)C(=O)N3CCCC(N3)C(=O)OCC(C)(C)C2)C1", "N"),
    ("CC(C)NCC(C(=O)N1CCN(c2ncnc3c2C(C)CC3O)CC1)c1ccc(Cl)cc1 (stereo unspecified) + CCn1c(-c2cccnc2C(C)OC)c2c3cc(ccc31)N1CCOC(CC(NC(=O)C(C(C)C)N(C)C(=O)C3(F)CCN(C(=O)C#CC(C)(C)N(C)C)CC3)C(=O)N3CCCC(N3)C(=O)OCC(C)(C)C2)C1", "N"),
    ("CC(=O)OC12COC1CC(O)C1(C)C(=O)C(O)C3=C(C)C(OC(=O)C(O)C(NC(=O)OC(C)(C)C)c4ccccc4)CC(O)(C(OC(=O)c4ccccc4)C21)C3(C)C (stereo unspecified) + CCn1c(-c2cccnc2C(C)OC)c2c3cc(ccc31)N1CCOC(CC(NC(=O)C(C(C)C)N(C)C(=O)C3(F)CCN(C(=O)C#CC(C)(C)N(C)C)CC3)C(=O)N3CCCC(N3)C(=O)OCC(C)(C)C2)C1", "Y"),
    ("CC(=O)OC12COC1CC(O)C1(C)C(=O)C(O)C3=C(C)C(OC(=O)C(O)C(NC(=O)OC(C)(C)C)c4ccccc4)CC(O)(C(OC(=O)c4ccccc4)C21)C3(C)C (stereo unspecified) + CCn1c(-c2cc(N3CCN(C)CC3)cnc2C(C)OC)c2c3cc(ccc31)-c1csc(n1)CC(NC(=O)C1CC1C)C(=O)N1CCCC(N1)C(=O)OCC(C)(C)C2", "Y"),
    ("C[C@@H](NC(=O)c1ncnc(N)c1Cl)c1ncc(C(=O)Nc2cc(C(F)(F)F)c(Cl)cn2)s1 + CCn1c(-c2cccnc2C(C)OC)c2c3cc(ccc31)N1CCOC(CC(NC(=O)C(C(C)C)N(C)C(=O)C3(F)CCN(C(=O)C#CC(C)(C)N(C)C)CC3)C(=O)N3CCCC(N3)C(=O)OCC(C)(C)C2)C1", "N"),
    ("CC1(O)CCCC1n1c(=O)c(C(F)F)cc2cnc(NC3CCN(S(C)(=O)=O)CC3)nc21 (stereo unspecified) + CCn1c(-c2cccnc2C(C)OC)c2c3cc(ccc31)N1CCOC(CC(NC(=O)C(C(C)C)N(C)C(=O)C3(F)CCN(C(=O)C#CC(C)(C)N(C)C)CC3)C(=O)N3CCCC(N3)C(=O)OCC(C)(C)C2)C1", "Y"),
    ("CC(C)NCC(C(=O)N1CCN(c2ncnc3c2C(C)CC3O)CC1)c1ccc(Cl)cc1 (stereo unspecified) + CCn1c(-c2cc(N3CCN(C)CC3)cnc2C(C)OC)c2c3cc(ccc31)-c1csc(n1)CC(NC(=O)C1CC1C)C(=O)N1CCCC(N1)C(=O)OCC(C)(C)C2", "Y"),
    ("NC1c2ccccc2OC12CCN(c1cnc3c(N4CCCc5ncccc54)n[nH]c3n1)CC2 (stereo unspecified) + CCn1c(-c2cc(N3CCN(C)CC3)cnc2C(C)OC)c2c3cc(ccc31)-c1csc(n1)CC(NC(=O)C1CC1C)C(=O)N1CCCC(N1)C(=O)OCC(C)(C)C2", "Y"),
    ("CCC(CC)c1cc(NC2CCC(N)C2)n2nccc2n1 (stereo unspecified) + CCn1c(-c2cccnc2C(C)OC)c2c3cc(ccc31)N1CCOC(CC(NC(=O)C(C(C)C)N(C)C(=O)C3(F)CCN(C(=O)C#CC(C)(C)N(C)C)CC3)C(=O)N3CCCC(N3)C(=O)OCC(C)(C)C2)C1", "Y"),
    ("NC1c2ccccc2OC12CCN(c1cnc3c(N4CCCc5ncccc54)n[nH]c3n1)CC2 (stereo unspecified) + CCn1c(-c2cccnc2C(C)OC)c2c3cc(ccc31)N1CCOC(CC(NC(=O)C(C(C)C)N(C)C(=O)C3(F)CCN(C(=O)C#CC(C)(C)N(C)C)CC3)C(=O)N3CCCC(N3)C(=O)OCC(C)(C)C2)C1", "N"),
    ("Cc1nc(N2CCC3(CC2)COC(C)C3N)c(CO)nc1Sc1ccnc(N)c1Cl (stereo unspecified) + CCn1c(-c2cccnc2C(C)OC)c2c3cc(ccc31)N1CCOC(CC(NC(=O)C(C(C)C)N(C)C(=O)C3(F)CCN(C(=O)C#CC(C)(C)N(C)C)CC3)C(=O)N3CCCC(N3)C(=O)OCC(C)(C)C2)C1", "N"),
    ("C[C@@H](NC(=O)c1ncnc(N)c1Cl)c1ncc(C(=O)Nc2cc(C(F)(F)F)c(Cl)cn2)s1 + CCn1c(-c2cc(N3CCN(C)CC3)cnc2C(C)OC)c2c3cc(ccc31)-c1csc(n1)CC(NC(=O)C1CC1C)C(=O)N1CCCC(N1)C(=O)OCC(C)(C)C2", "Y"),
    ("CC(Nc1ccc2c(c1)OCCn1cc(N3C(=O)OCC3C(F)F)nc1-2)C(N)=O (stereo unspecified) + CCn1c(-c2cc(N3CCN(C)CC3)cnc2C(C)OC)c2c3cc(ccc31)-c1csc(n1)CC(NC(=O)C1CC1C)C(=O)N1CCCC(N1)C(=O)OCC(C)(C)C2", "Y"),
    ("CC1(O)CCCC1n1c(=O)c(C(F)F)cc2cnc(NC3CCN(S(C)(=O)=O)CC3)nc21 (stereo unspecified) + CCn1c(-c2cc(N3CCN(C)CC3)cnc2C(C)OC)c2c3cc(ccc31)-c1csc(n1)CC(NC(=O)C1CC1C)C(=O)N1CCCC(N1)C(=O)OCC(C)(C)C2", "Y"),
    ("Cc1nc(N2CCC3(CC2)COC(C)C3N)c(CO)nc1Sc1ccnc(N)c1Cl (stereo unspecified) + CCn1c(-c2cc(N3CCN(C)CC3)cnc2C(C)OC)c2c3cc(ccc31)-c1csc(n1)CC(NC(=O)C1CC1C)C(=O)N1CCCC(N1)C(=O)OCC(C)(C)C2", "Y"),
]

# credit: PubChem BioAssay AID2060908
